# System: human Factor 7 mRNA
# PROTOCOL_NOTES: Antisense inhibition of human Factor 7 mRNA in HepB3 cells, lipofectin, 50 nM, real-time RT-PCR
# Type: cell-based
# MEASUREMENT_CONTEXT: Example 4; HepB3 cells, lipofectin, 50 nM, ~24 h, relative to untreated control
In the oligonucleotide strings, read from the 5' end, every base follows the letter of its sugar. An asterisk marks phosphorothioate; unmarked linkages are phosphodiester. Other units and linkages are bracketed, terminal groups are in braces. A string of capitals states the bases alone. e = 2'-O-(2-methoxyethyl) (MOE); [5mC] = 5-methylcytosine; d = 2'-deoxy (DNA)
Classes by % Inhibition (human Factor 7 mRNA): low value = under 10%, medium value = from 10% up to 30%, high value = 30% and over

Examples from the recorded data:
SUBSTANCE	CLASS_NAME
422193 (antisense eT*eG*eA*dG*d[5mC]*dG*d[5mC]*dG*dG*dA*dA*dG*dA*dA*dG*dG*dG*eA*e[5mC]*eG) [compound 422193]	low value
422188 (antisense eG*e[5mC]*eG*dG*dA*dA*dG*dA*dA*dG*dG*dG*dA*d[5mC]*dG*dG*dA*eA*eG*eG) [compound 422188]	high value
422272 (antisense eA*e[5mC]*dT*dG*dA*dG*d[5mC]*dG*d[5mC]*dG*dG*dA*dA*dG*dA*eA*eG*eG*eG*eA) [compound 422272]	medium value
422198 (antisense eG*eT*eT*dA*d[5mC]*dT*dG*dA*dG*d[5mC]*dG*d[5mC]*dG*dG*dA*dA*dG*eA*eA*eG) [compound 422198]	high value
422271 (antisense e[5mC]*eT*dG*dA*dG*d[5mC]*dG*d[5mC]*dG*dG*dA*dA*dG*dA*dA*eG*eG*eG*eA*e[5mC]) [compound 422271]	high value
422117 (antisense eG*eG*eA*eA*eG*dA*dA*dG*dG*dG*dA*d[5mC]*dG*dG*dA*eA*eG*eG*eT*eG) [compound 422117]	low value

Where would 422126 (antisense eA*e[5mC]*eT*eG*eA*dG*d[5mC]*dG*d[5mC]*dG*dG*dA*dA*dG*dA*eA*eG*eG*eG*eA) [compound 422126] land among the classes by reported % Inhibition (human Factor 7 mRNA)?
medium value

Where would 422199 (antisense eG*eG*eT*dT*dA*d[5mC]*dT*dG*dA*dG*d[5mC]*dG*d[5mC]*dG*dG*dA*dA*eG*eA*eA) [compound 422199] land among the classes by reported % Inhibition (human Factor 7 mRNA)?
high value

Where would 422190 (antisense eG*e[5mC]*eG*d[5mC]*dG*dG*dA*dA*dG*dA*dA*dG*dG*dG*dA*d[5mC]*dG*eG*eA*eA) [compound 422190] land among the classes by reported % Inhibition (human Factor 7 mRNA)?
medium value

Where would 422124 (antisense eT*eG*eA*eG*e[5mC]*dG*d[5mC]*dG*dG*dA*dA*dG*dA*dA*dG*eG*eG*eA*e[5mC]*eG) [compound 422124] land among the classes by reported % Inhibition (human Factor 7 mRNA)?
low value

Where would 422122 (antisense eA*eG*e[5mC]*eG*e[5mC]*dG*dG*dA*dA*dG*dA*dA*dG*dG*dG*eA*e[5mC]*eG*eG*eA) [compound 422122] land among the classes by reported % Inhibition (human Factor 7 mRNA)?
medium value

Where would 422275 (antisense eG*eT*dT*dA*d[5mC]*dT*dG*dA*dG*d[5mC]*dG*d[5mC]*dG*dG*dA*eA*eG*eA*eA*eG) [compound 422275] land among the classes by reported % Inhibition (human Factor 7 mRNA)?
high value

Where would 422128 (antisense eT*eT*eA*e[5mC]*eT*dG*dA*dG*d[5mC]*dG*d[5mC]*dG*dG*dA*dA*eG*eA*eA*eG*eG) [compound 422128] land among the classes by reported % Inhibition (human Factor 7 mRNA)?
medium value

Where would 422189 (antisense e[5mC]*eG*e[5mC]*dG*dG*dA*dA*dG*dA*dA*dG*dG*dG*dA*d[5mC]*dG*dG*eA*eA*eG) [compound 422189] land among the classes by reported % Inhibition (human Factor 7 mRNA)?
low value

Where would 422194 (antisense e[5mC]*eT*eG*dA*dG*d[5mC]*dG*d[5mC]*dG*dG*dA*dA*dG*dA*dA*dG*dG*eG*eA*e[5mC]) [compound 422194] land among the classes by reported % Inhibition (human Factor 7 mRNA)?
medium value

Where would 422269 (antisense eG*eA*dG*d[5mC]*dG*d[5mC]*dG*dG*dA*dA*dG*dA*dA*dG*dG*eG*eA*e[5mC]*eG*eG) [compound 422269] land among the classes by reported % Inhibition (human Factor 7 mRNA)?
medium value

Where would 422125 (antisense e[5mC]*eT*eG*eA*eG*d[5mC]*dG*d[5mC]*dG*dG*dA*dA*dG*dA*dA*eG*eG*eG*eA*e[5mC]) [compound 422125] land among the classes by reported % Inhibition (human Factor 7 mRNA)?
low value

Where would 422192 (antisense eG*eA*eG*d[5mC]*dG*d[5mC]*dG*dG*dA*dA*dG*dA*dA*dG*dG*dG*dA*e[5mC]*eG*eG) [compound 422192] land among the classes by reported % Inhibition (human Factor 7 mRNA)?
medium value

Where would 422123 (antisense eG*eA*eG*e[5mC]*eG*d[5mC]*dG*dG*dA*dA*dG*dA*dA*dG*dG*eG*eA*e[5mC]*eG*eG) [compound 422123] land among the classes by reported % Inhibition (human Factor 7 mRNA)?
medium value

Where would 422270 (antisense eT*eG*dA*dG*d[5mC]*dG*d[5mC]*dG*dG*dA*dA*dG*dA*dA*dG*eG*eG*eA*e[5mC]*eG) [compound 422270] land among the classes by reported % Inhibition (human Factor 7 mRNA)?
medium value

Where would 422264 (antisense e[5mC]*eG*dG*dA*dA*dG*dA*dA*dG*dG*dG*dA*d[5mC]*dG*dG*eA*eA*eG*eG*eT) [compound 422264] land among the classes by reported % Inhibition (human Factor 7 mRNA)?
medium value

Where would 422186 (antisense eG*eG*eA*dA*dG*dA*dA*dG*dG*dG*dA*d[5mC]*dG*dG*dA*dA*dG*eG*eT*eG) [compound 422186] land among the classes by reported % Inhibition (human Factor 7 mRNA)?
medium value

Where would 422129 (antisense eG*eT*eT*eA*e[5mC]*dT*dG*dA*dG*d[5mC]*dG*d[5mC]*dG*dG*dA*eA*eG*eA*eA*eG) [compound 422129] land among the classes by reported % Inhibition (human Factor 7 mRNA)?
high value

Attribution: patent US20120214862A1
